System: recombinant human HDACs
Experiment: HDAC enzymatic assay (LabChip capillary electrophoresis)
Type: biochemical
Settings: 5 nM HDAC enzyme, 1 uM substrate, 5 hours pre-incubation, 17 hours reaction at 25°C; isoform not given
pIC50: −log10 of the molar value.
# pIC50 annotations

CN1CCn2cc(C(=O)Nc3nc(-c4ccccc4)ccc3N)nc2C1
5.30 to 6.30

Qu. Please report pIC50 for the following molecule: `CN1CCN(C[C@@H]2[C@H]3CN(C(=O)Nc4nc(-c5ccc(F)cc5)ccc4N)C[C@@H]23)CC1`
Ans. < 5.30

Qu. Determine from records and report pIC50 for `CN1CC=C(c2cnc3c(c2)CN(C(=O)Nc2nc(-c4ccc(F)cc4)ccc2N)C3)CC1`
Ans. 6.30 to 7.00

Qu. Specify pIC50 for `CN1CCC(C(=O)Nc2nn(-c3ccccc3)cc2N)CC1` and stop.
Ans. < 5.30
